biological target: HIV RT (HIV, UniProt P04585;P04585 588-1147;588-1027); assay: filter binding; no Mg2+; Primer extension: 50 mM Tris-HCl pH 8.0, 80 mM KCl, 6 mM MgCl2, 1 mM DTT, 0.1 mg/ml BSA, room temperature, 1 nM duplex; filter binding: Tris-HCl pH 8.0, 80 mM KCl, 1 mM DTT, without Mg2+ (wt) or 6 mM Mg2+ (E478Q), room temperature, 5 nM hybrid (Table 1 units nM inferred); settings: protein: commercial; copies: 1;1; label: 5'-32P primer; template 5' overhang 4 nt, 3' overhang 3 nt
Assay readout: pKd
Here pKd is given on a logarithmic scale as minus log10 of the concentration in mol/L.

[in] Requested field: pKd. Item: Ty3 RNA PPT (DNA:RNA, strand 1 RNA, strand 2 DNA) ?: GAGCGCGCGGCC DNA: CAGCGGCCGCGCGCTCAGG
[out] 5.62

The reported measurements were obtained from paper PMC3407194.
